Experiment: Ratio AUC in mouse liver to plasma
Details: other tissue
Readout: Kp
Give your answer as a number; write no unit.

// recorded Kp for "CC(C)c1cc(Oc2c(Cl)cc(-n3nc(C#N)c(=O)[nH]c3=O)cc2Cl)n[nH]c1=O" : 6.3

---

Assay: Plasma protein binding in cynomolgus monkey at 2 uM incubated for 4 hrs by rapid equilibrium dialysis
Readout: fraction unbound at 4 h, 2 µM
// return just the number, without any unit appended

In plain terms, "CC(C)c1cc(Oc2c(Cl)cc(-n3nc(C#N)c(=O)[nH]c3=O)cc2Cl)n[nH]c1=O" has a documented fraction unbound at 4 h, 2 µM of 0.005

---

Assay: Drug concentration in Sprague-Dawley rat liver at 1.5 mg/kg, po measured for 24 hrs by LC-MS/MS analysis
Type: ADME, organism-based
Settings: read-out: Ct
Readout: concentration at 24 h (ng/g)
Write the value in ng/g as a bare number.

Sure, the documented concentration at 24 h for CC(C)c1cc(Oc2c(Cl)cc(-n3nc(C#N)c(=O)[nH]c3=O)cc2Cl)n[nH]c1=O [RESMETIROM] is 73.6

---

Assay: Cmax in Sprague-Dawley rat at 5 mg/kg, po measured for 24 hrs by LC-MS/MS analysis
Type: ADME, organism-based
Conditions: in vivo
Readout: Cmax (ng/mL)
Give a bare numeral; the unit ng/mL is implied.

// Cmax lookup, compound = "CC(C)c1cc(Oc2c(Cl)cc(-n3nc(C#N)c(=O)[nH]c3=O)cc2Cl)n[nH]c1=O" , result: 2550

---

Biological target: Sodium channel protein type 5 subunit alpha (Homo sapiens, UniProt Q14524)
Sequence (Q14524 whole entry): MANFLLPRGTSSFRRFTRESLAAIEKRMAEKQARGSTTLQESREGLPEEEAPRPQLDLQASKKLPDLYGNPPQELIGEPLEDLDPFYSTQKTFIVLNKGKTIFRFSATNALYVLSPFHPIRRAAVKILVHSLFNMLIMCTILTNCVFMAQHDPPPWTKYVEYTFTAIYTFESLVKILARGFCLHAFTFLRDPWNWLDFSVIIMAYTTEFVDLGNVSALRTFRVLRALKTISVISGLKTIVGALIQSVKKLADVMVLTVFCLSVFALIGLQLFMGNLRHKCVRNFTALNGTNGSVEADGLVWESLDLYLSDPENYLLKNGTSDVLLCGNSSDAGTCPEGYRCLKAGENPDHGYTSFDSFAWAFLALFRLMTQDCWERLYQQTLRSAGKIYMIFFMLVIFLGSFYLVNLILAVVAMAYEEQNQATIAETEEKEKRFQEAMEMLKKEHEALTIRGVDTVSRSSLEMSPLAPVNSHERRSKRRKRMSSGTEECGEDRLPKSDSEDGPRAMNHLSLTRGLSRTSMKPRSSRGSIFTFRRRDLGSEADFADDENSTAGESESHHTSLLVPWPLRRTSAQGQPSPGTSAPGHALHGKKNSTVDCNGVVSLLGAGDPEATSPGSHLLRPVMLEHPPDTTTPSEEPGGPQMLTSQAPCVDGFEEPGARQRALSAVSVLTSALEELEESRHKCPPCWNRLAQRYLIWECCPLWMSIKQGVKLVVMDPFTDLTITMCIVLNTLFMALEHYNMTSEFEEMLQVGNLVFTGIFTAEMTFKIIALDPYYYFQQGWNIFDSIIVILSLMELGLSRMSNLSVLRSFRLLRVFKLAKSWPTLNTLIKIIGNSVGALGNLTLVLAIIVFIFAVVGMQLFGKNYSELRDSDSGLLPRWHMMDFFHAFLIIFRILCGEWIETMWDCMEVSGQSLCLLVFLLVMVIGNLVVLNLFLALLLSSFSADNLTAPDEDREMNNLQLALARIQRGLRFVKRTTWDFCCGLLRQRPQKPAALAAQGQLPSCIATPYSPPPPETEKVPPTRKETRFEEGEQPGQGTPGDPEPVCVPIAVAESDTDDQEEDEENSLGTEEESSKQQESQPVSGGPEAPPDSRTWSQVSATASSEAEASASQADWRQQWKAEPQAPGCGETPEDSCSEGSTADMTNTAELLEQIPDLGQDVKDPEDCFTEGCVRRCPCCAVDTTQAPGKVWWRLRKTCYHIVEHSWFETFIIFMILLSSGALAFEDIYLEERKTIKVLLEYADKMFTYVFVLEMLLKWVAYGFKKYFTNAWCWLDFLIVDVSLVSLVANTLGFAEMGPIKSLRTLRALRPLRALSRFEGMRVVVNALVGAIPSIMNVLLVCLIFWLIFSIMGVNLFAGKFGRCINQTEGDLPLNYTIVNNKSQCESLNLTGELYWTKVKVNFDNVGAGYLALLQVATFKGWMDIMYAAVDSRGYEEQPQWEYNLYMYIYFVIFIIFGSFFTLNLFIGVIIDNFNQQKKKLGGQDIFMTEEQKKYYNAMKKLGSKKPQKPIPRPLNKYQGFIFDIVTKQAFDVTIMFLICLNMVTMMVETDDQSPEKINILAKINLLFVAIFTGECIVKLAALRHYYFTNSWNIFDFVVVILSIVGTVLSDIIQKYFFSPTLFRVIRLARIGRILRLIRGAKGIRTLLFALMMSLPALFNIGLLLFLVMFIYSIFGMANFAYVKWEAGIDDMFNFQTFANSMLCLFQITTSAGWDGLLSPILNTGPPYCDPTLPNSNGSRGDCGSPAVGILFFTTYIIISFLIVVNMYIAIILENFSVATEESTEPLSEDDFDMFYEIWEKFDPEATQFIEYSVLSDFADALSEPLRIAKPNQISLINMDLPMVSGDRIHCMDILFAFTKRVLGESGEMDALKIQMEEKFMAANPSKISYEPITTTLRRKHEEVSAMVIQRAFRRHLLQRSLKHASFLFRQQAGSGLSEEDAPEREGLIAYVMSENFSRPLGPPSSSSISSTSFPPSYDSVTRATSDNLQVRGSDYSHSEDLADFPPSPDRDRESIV
Test: Inhibition of Nav1.5 (unknown origin)
pIC50: −log10 of the molar value.
Readout: pIC50

Lab note: "CC(C)c1cc(Oc2c(Cl)cc(-n3nc(N)c(=O)[nH]c3=O)cc2Cl)n[nH]c1=O" gave pIC50 of < 5.00

---

Assay: in vitro
Conditions: rat, cryopreserved hepatocytes
Readout: half-life at 3 h, 1 µM (h)
// note: answer is a bare numeric in h

Input "C#Cc1nn(-c2cc(Cl)c(Oc3cc(C(C)C)c(=O)[nH]n3)c(Cl)c2)c(=O)[nH]c1=O" . Output half-life at 3 h, 1 µM: 1.43

---

Target: Solute carrier organic anion transporter family member 1B1 (Homo sapiens, UniProt Q9Y6L6)
Sequence (Q9Y6L6 whole entry): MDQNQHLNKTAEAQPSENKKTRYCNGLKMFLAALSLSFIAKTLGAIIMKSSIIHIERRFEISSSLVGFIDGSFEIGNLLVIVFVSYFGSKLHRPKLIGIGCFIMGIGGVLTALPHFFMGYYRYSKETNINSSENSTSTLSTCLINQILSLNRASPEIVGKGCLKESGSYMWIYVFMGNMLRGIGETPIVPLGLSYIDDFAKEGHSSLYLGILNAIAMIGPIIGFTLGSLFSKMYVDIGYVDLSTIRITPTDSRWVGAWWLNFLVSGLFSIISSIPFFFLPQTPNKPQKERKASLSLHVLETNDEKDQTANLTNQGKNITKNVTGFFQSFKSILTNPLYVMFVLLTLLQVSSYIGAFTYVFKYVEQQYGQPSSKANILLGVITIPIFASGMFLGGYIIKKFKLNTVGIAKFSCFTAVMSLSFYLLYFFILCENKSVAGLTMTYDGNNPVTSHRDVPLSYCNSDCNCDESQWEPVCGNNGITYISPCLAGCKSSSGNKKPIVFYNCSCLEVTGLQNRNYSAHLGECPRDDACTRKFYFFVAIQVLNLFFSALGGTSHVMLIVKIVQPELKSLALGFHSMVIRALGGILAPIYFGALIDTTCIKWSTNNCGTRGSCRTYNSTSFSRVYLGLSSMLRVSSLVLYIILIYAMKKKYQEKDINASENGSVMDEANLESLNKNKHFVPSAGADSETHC
Assay: Inhibition of OATP1B1 (unknown origin) stably transfected in HEK293 cells at 1 to 100 uM
Readout: pIC50
pIC50 field: float, defined as -log10 of concentration (mol/L).

Readout pIC50 for "CC(C)c1cc(Oc2c(Cl)cc(-n3nc(N)c(=O)[nH]c3=O)cc2Cl)n[nH]c1=O" , test system Solute carrier organic anion transporter family member 1B1 (Homo sapiens, UniProt Q9Y6L6), was 4.62

---

Assay: Drug concentration in Sprague-Dawley rat plasma at 1.5 mg/kg, po measured for 24 hrs by LC-MS/MS analysis
Type: ADME, organism-based
Readout: concentration at 24 h (ng/mL)
Dear colleague, please return just the value in ng/mL, with no unit written.

Measured concentration at 24 h, "CC(C)c1cc(Oc2c(Cl)cc(-n3nc(C#N)c(=O)[nH]c3=O)cc2Cl)n[nH]c1=O" : 38.2

---

Experiment: Plasma protein binding in Beagle dog at 2 uM incubated for 4 hrs by rapid equilibrium dialysis
Readout: fraction unbound at 4 h, 2 µM
// no unit, no text: just the number

fraction unbound at 4 h, 2 µM for "CC(C)c1cc(Oc2c(Cl)cc(-n3nc(C#N)c(=O)[nH]c3=O)cc2Cl)n[nH]c1=O" is 0.012

From: ChEMBL document CHEMBL5584359
